Values were extracted from patent US20030162942A1.

# TARGET_SYSTEM: human serum protease plasmin (human, UniProt P00747 97-810, limits assumed)
# Sequence (P00747 97-810 limits assumed): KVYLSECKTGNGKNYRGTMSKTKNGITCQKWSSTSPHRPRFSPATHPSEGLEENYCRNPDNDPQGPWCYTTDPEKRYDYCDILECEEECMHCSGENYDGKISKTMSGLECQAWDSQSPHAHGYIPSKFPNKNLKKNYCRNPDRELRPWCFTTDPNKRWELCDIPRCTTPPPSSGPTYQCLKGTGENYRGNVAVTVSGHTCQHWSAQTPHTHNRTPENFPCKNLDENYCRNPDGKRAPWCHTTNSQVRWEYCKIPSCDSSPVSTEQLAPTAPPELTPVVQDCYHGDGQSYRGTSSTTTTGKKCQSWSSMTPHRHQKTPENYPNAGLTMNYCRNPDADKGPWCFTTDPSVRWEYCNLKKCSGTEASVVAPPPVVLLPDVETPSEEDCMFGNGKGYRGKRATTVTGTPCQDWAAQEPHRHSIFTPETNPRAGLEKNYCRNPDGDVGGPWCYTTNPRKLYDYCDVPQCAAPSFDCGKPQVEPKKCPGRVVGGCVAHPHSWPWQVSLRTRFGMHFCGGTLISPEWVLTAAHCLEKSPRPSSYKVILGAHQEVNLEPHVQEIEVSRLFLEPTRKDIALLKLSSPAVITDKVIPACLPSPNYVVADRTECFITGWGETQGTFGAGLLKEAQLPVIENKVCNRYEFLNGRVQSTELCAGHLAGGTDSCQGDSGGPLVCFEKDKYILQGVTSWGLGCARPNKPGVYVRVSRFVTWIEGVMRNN
# PROCEDURE_SUMMARY: phage binding to protein on beads (data not shown)
ENDPOINT: binding result

INSERT INTO measurements (binder, result) VALUES
  ('RWCPKYTLECMKDSDCLAECVCLEHGYCGAGPSYIEGRIVGSA (designed binder, not shown: mature gene III protein of M13 phage) [CMTI-I analogue 229, phage isolate]', 'no binding'),
  ('RWCPRTVRRCMKDSDCLAECVCLEHGYCGAGPSYIEGRIVGSA (designed binder, not shown: mature gene III protein of M13 phage) [CMTI-I analogue 118, phage isolate]', 'no binding'),
  ('RWCSTYSLGCMKDSDCLAECVCLEHGYCGAGPSYIEGRIVGSA (designed binder, not shown: mature gene III protein of M13 phage) [CMTI-I analogue 103, phage isolate]', 'no binding');
